- Tested on: MCF7
- assay.name: Antiproliferative activity against human MCF7 cells assessed as reduction in cell growth measured after 48 hrs by MTT assay
- Assay type: functional, cell-based
- conditions.used: MCF7, 48 h
Readings of IC50 for the listed compounds
# unit: µM | format: bare number

{"compound": "Cc1noc(C)c1Cn1c(=O)nc(-c2ccc(F)cc2)c2c3c(sc21)CC(C(C)(C)C)CC3 (stereo not drawn)", "reported.property": "IC50", "u": "µM", "reported.measurement": 33.3}

Read the next record carefully.
[Q] Please look at this compound and report its IC50: Cc1noc(C)c1Cn1c(=O)nc(-c2ccc(Cl)cc2)c2c3c(sc21)CC(C(C)(C)C)CC3 (stereo not drawn)
[A] 78.3

###

- test.system: Bromodomain-containing protein 4 (Homo sapiens)
- assay.name: Inhibition of biotinylated H4 K5,8,12,16Ac peptide binding to GST-tagged BRD4 bromodomain2 (unknown origin) at 100 uM measured after 60 mins by AlphaScreen assay relative to control
Cut-off 40% on inhibition, inclusive. At or above means TRUE; below means FALSE.

[Q] Given the entry CC(C)(C)C1CCc2c(sc3c2c(-c2ccccc2)nc(=O)n3Cc2ncccn2)C1 (stereo not given) , answer whether its inhibition meets or surpasses 40%.
[A] TRUE

[Q] Given the entry COc1ccc(-c2nc(=O)n(Cc3c(C)noc3C)c3sc4c(c23)CCC(C(C)(C)C)C4)cc1 (stereo not given) , answer whether its inhibition meets or surpasses 40%.
[A] TRUE

[Q] Given the entry Cc1noc(C)c1Cn1c(=O)nc(-c2ccccc2)c2c3c(sc21)CC(C(C)(C)C)CC3 (stereo not given) , answer whether its inhibition meets or surpasses 40%.
[A] TRUE

[Q] Given the entry COC(=O)c1ccc(-c2nc(=O)n(Cc3c(C)noc3C)c3sc4c(c23)CCC(C(C)(C)C)C4)cc1 (stereo not given) , answer whether its inhibition meets or surpasses 40%.
[A] TRUE

[Q] Given the entry Cc1noc(C)c1Cn1c(=O)nc(-c2ccc(Cl)cc2)c2c3c(sc21)CC(C(C)(C)C)CC3 (stereo not given) , answer whether its inhibition meets or surpasses 40%.
[A] FALSE

[Q] Given the entry O=c1nc(-c2ccc(Cl)cc2)c2c3c(sc2n1Cc1cnc(Cl)s1)CC(c1ccccc1)CC3 (stereo not given) , answer whether its inhibition meets or surpasses 40%.
[A] FALSE

[Q] Given the entry `CC(=O)Cn1c(=O)nc(-c2ccccc2)c2c3c(sc21)CCCC3` , answer whether its inhibition meets or surpasses 40%.
[A] FALSE

[Q] Given the entry `CCc1c(C)sc2c1c(-c1ccccc1)nc(=O)n2Cc1c(C)noc1C` , answer whether its inhibition meets or surpasses 40%.
[A] FALSE

[Q] Given the entry `CNC(=O)Cn1c(=O)nc(-c2ccccc2)c2c3c(sc21)CCCC3` , answer whether its inhibition meets or surpasses 40%.
[A] FALSE

###

- System: A-375
- assay.name: Antiproliferative activity against human A375 cells assessed as reduction in cell growth measured after 48 hrs by MTT assay
- Assay type: functional, cell-based
- conditions.used: A-375, 48 h
reported.property: pIC50
On this scale, pIC50 is minus log10 of a concentration expressed in M (mol/L).

[Q] Please look at this compound and report its pIC50: Cc1noc(C)c1Cn1c(=O)nc(-c2ccccc2)c2c3c(sc21)CC(C(C)(C)C)CC3 (centres undefined)
[A] 5.10

[Q] Please look at this compound and report its pIC50: Cc1noc(C)c1Cn1c(=O)nc(-c2cccc(Cl)c2)c2c3c(sc21)CC(C(C)(C)C)CC3 (centres undefined)
[A] 4.80

[Q] Please look at this compound and report its pIC50: COc1ccc(-c2nc(=O)n(Cc3cnc(Cl)s3)c3sc4c(c23)CCC(C(C)(C)C)C4)cc1 (centres undefined)
[A] 5.19

[Q] Please look at this compound and report its pIC50: Cc1noc(C)c1Cn1c(=O)nc(-c2ccc(Cl)cc2)c2c3c(sc21)CC(C(C)(C)C)CC3 (centres undefined)
[A] 4.87

###

- Test system: MCF7
- assay.name: Antiproliferative activity against human MCF7 cells assessed as reduction in cell growth measured after 48 hrs by MTT assay
- Type: functional, cell-based
- conditions.used: MCF7, 48 h
reported.property: IC50 (µM)
# unit: µM | format: bare number

{"compound": "Cc1sc2c(c1C)C(c1ccc(Cl)cc1)=N[C@@H](CC(=O)OC(C)(C)C)c1nnc(C)n1-2", "IC50, µM": 38}

[Q] Please look at this compound and report its IC50: COC(=O)c1ccc(-c2nc(=O)n(Cc3c(C)noc3C)c3sc4c(c23)CCC(C(C)(C)C)C4)cc1 (stereo not given)
[A] 38.6

###

Readings of pIC50 for the listed compounds
- Test system: MCF7
- assay.name: Antiproliferative activity against human MCF7 cells assessed as reduction in cell growth measured after 48 hrs by MTT assay
- Format: functional, cell-based
- conditions.used: MCF7, 48 h
On this scale, pIC50 is minus log10 of a concentration expressed in M (mol/L).

Observe how each entry below is paired with its result.
{"compound": "Cc1noc(C)c1Cn1c(=O)nc(-c2ccccc2Cl)c2c3c(sc21)CC(C(C)(C)C)CC3 (centres undefined)", "reported.property": "pIC50", "reported.measurement": 4.16}
{"compound": "COc1ccc(-c2nc(=O)n(Cc3c(C)noc3C)c3sc4c(c23)CCC(C(C)(C)C)C4)cc1 (centres undefined)", "reported.property": "pIC50", "reported.measurement": 4.98}
{"compound": "Cc1noc(C)c1Cn1c(=O)nc(-c2ccc(Cl)c(Cl)c2)c2c3c(sc21)CC(C(C)(C)C)CC3 (centres undefined)", "reported.property": "pIC50", "reported.measurement": 4.78}

Read the next record carefully.
[Q] Please look at this compound and report its pIC50: Cc1noc(C)c1Cn1c(=O)nc(-c2cccc(Cl)c2)c2c3c(sc21)CC(C(C)(C)C)CC3 (centres undefined)
[A] 4.59

###

Readings of pIC50 for the listed compounds
- Tested on: HepG2
- assay.name: Antiproliferative activity against human HepG2 cells assessed as reduction in cell growth measured after 48 hrs by MTT assay
- Type: functional, cell-based
- conditions.used: HepG2, 48 h
On this scale, pIC50 is minus log10 of a concentration expressed in M (mol/L).

{"compound": "COc1ccc(-c2nc(=O)n(Cc3cnc(Cl)s3)c3sc4c(c23)CCC(C(C)(C)C)C4)cc1 (stereo not drawn)", "test.system": "HepG2", "pIC50": 4.84}
{"compound": "COc1cc(OC)c2c(=O)[nH]c(-c3cc(C)c(OCCO)c(C)c3)nc2c1 [APABETALONE]", "test.system": "HepG2", "pIC50": 3.99}

Read the next record carefully.
[Q] Please look at this compound and report its pIC50: COc1ccc(-c2nc(=O)n(Cc3c(C)noc3C)c3sc4c(c23)CCC(C(C)(C)C)C4)cc1 (stereo not drawn)
[A] 4.82

###

- test.system: Bromodomain-containing protein 4 (Homo sapiens, UniProt O60885)
- assay.name: Inhibition of biotinylated H4 K5,8,12,16Ac peptide binding to GST-tagged BRD4 bromodomain1 (unknown origin) measured after 60 mins by AlphaScreen assay
pIC50: −log10 of the molar value.
Cut-off 5 on pIC50, inclusive. At or above means 1; below means -1.

{"compound": "Cc1noc(C)c1Cn1c(=O)nc(-c2ccc(Cl)c(Cl)c2)c2c3c(sc21)CC(C(C)(C)C)CC3 (stereo unspecified)", "test.system": "Bromodomain-containing protein 4 (Homo sapiens, UniProt O60885)", "group": 1}
{"compound": "Cc1noc(C)c1Cn1c(=O)nc(-c2ccc(F)cc2)c2c3c(sc21)CC(C(C)(C)C)CC3 (stereo unspecified)", "test.system": "Bromodomain-containing protein 4 (Homo sapiens, UniProt O60885)", "group": 1}
{"compound": "Cc1noc(C)c1Cn1c(=O)nc(-c2ccc(Cl)cc2)c2c3c(sc21)CC(c1ccccc1)CC3 (stereo unspecified)", "test.system": "Bromodomain-containing protein 4 (Homo sapiens, UniProt O60885)", "group": 1}

[Q] Given the entry COC(=O)c1ccc(-c2nc(=O)n(Cc3c(C)noc3C)c3sc4c(c23)CCC(C(C)(C)C)C4)cc1 (stereo unspecified) , answer whether its pIC50 meets or surpasses 5.
[A] 1

[Q] Given the entry COc1ccc(-c2nc(=O)n(Cc3cnc(Cl)s3)c3sc4c(c23)CCC(C(C)(C)C)C4)cc1 (stereo unspecified) , answer whether its pIC50 meets or surpasses 5.
[A] -1

###

- Tested on: HT-29
- assay.name: Antiproliferative activity against human HT-29 cells assessed as reduction in cell growth measured after 48 hrs by MTT assay
- Type: functional, cell-based
- conditions.used: HT-29, 48 h
Readings of log10(IC50) for the listed compounds
Use the decimal logarithm of IC50 (µM).

{"compound": "Cc1noc(C)c1Cn1c(=O)nc(-c2ccc(Cl)c(Cl)c2)c2c3c(sc21)CC(C(C)(C)C)CC3 (centres undefined)", "log10(IC50)": 1.29}
{"compound": "COc1ccc(-c2nc(=O)n(Cc3c(C)noc3C)c3sc4c(c23)CCC(C(C)(C)C)C4)cc1 (centres undefined)", "log10(IC50)": 1.11}
{"compound": "Cc1noc(C)c1Cn1c(=O)nc(-c2cccc(Cl)c2)c2c3c(sc21)CC(C(C)(C)C)CC3 (centres undefined)", "log10(IC50)": 1.29}
{"compound": "Cc1sc2c(c1C)C(c1ccc(Cl)cc1)=N[C@@H](CC(=O)OC(C)(C)C)c1nnc(C)n1-2", "log10(IC50)": 1.29}
{"compound": "COc1cc(OC)c2c(=O)[nH]c(-c3cc(C)c(OCCO)c(C)c3)nc2c1", "log10(IC50)": 2.37}
{"compound": "Cc1noc(C)c1Cn1c(=O)nc(-c2ccccc2)c2c3c(sc21)CC(C(C)(C)C)CC3 (centres undefined)", "log10(IC50)": 1.30}

[Q] Please look at this compound and report its log10(IC50): COC(=O)c1ccc(-c2nc(=O)n(Cc3c(C)noc3C)c3sc4c(c23)CCC(C(C)(C)C)C4)cc1 (centres undefined)
[A] 1.25

[Q] Please look at this compound and report its log10(IC50): Cc1noc(C)c1Cn1c(=O)nc(-c2ccc(Cl)cc2)c2c3c(sc21)CC(C(C)(C)C)CC3 (centres undefined)
[A] 1.53

[Q] Please look at this compound and report its log10(IC50): CC(C)(C)C1CCc2c(sc3c2c(-c2ccccc2)nc(=O)n3Cc2cnc(Cl)s2)C1 (centres undefined)
[A] 1.74
